So I've got a bunch of molecules here, and I need their pIC50 values.
- target_or_test_system: BACE-2 (Homo sapiens)
- Construct: Recombinant BACE-2 (extracellular domain, expressed in baculovirus and purified using standard methods)
- experimental_details: assay for inhibition of BACE-2
Structures can show the parent of a compound that is named as a salt.
Give bare numbers, as −log10 of the molar value.

Some molecules with recorded pIC50:
COc1cnc(C(=O)Nc2ccc(F)c([C@]3(C(F)F)COCC(N)=N3)c2)c(C)c1 :: 7.19
COc1cnc(C(=O)Nc2ccc(F)c([C@]3(C)CO[C@@](C)(C(F)(F)F)C(N)=N3)c2)c(Cl)c1 [Example 232, hydrochloride] :: 8.15
C[C@@]1(c2cc(NC(=O)c3ncc(Cl)cc3N)ccc2F)CO[C@@](C)(C(F)(F)F)C(N)=N1 [Example 153, hydrochloride] :: 8.52
C[C@H]1OC[C@](c2cc(NC(=O)c3ccc(Br)cn3)ccc2F)(C(F)F)N=C1N (relative stereo) [Example 77, hydrochloride] :: 7.38
COCc1cnc(C(=O)Nc2ccc(F)c([C@]3(C(F)F)COCC(N)=N3)c2)c(Cl)c1 [Example 183, hydrochloride] :: 5.31

Respectfully, I request pIC50 for each entry included below.
1. NC1=N[C@](CF)(c2cccc(NC(=O)c3ccc(Br)cn3)c2)COC1
2. Cn1ccc(C(=O)Nc2ccc(F)c([C@]3(C(F)F)COCC(N)=N3)c2)n1
3. NC1=N[C@@](c2cc(NC(=O)c3cc4ccccn4n3)ccc2F)(C(F)F)COC1
4. C[C@@]1(c2cc(NC(=O)c3ccc(C#N)cn3)ccc2F)CO[C@@](C)(C(F)(F)F)C(N)=N1
5. NC1=NC(CF)(c2cccc(NC(=O)c3ccc(Cl)cn3)n2)COC1 (stereo not drawn)
6. NC1=N[C@@](c2cc(NC(=O)c3ncc(Br)cc3N)ccc2F)(C(F)F)COC1 [Example 165, hydrochloride]
7. CCN1CC(C)(c2cc(NC(=O)c3ccc(Br)cn3)ccc2F)N=C(N)C1=O (stereo not drawn) [Example 191, hydrochloride]
8. CC1(c2cccc(NC(=O)c3ccco3)c2)COCC(N)=N1 (stereo not drawn) [Example 1, hydrochloride]

# output
1. 7.05
2. 7.21
3. 6.26
4. 7.57
5. 5.86
6. 8.30
7. 7.52
8. 7.21

Go through the items and report each one's pIC50.
1. CC#CCOc1cnc(C(=O)Nc2ccc(F)c([C@]3(C(F)F)COCC(N)=N3)c2)cn1 [Example 164, hydrochloride]
2. CCc1nc(C(=O)Nc2ccc(F)c([C@]3(C(F)F)COCC(N)=N3)c2)co1

# output
7.12
7.17

----------
- target_or_test_system: BACE-2 (Homo sapiens, UniProt Q9Y5Z0)
- Construct: Recombinant BACE-2 (extracellular domain, expressed in baculovirus and purified using standard methods)
- Sequence (Q9Y5Z0 63-473 limits assumed): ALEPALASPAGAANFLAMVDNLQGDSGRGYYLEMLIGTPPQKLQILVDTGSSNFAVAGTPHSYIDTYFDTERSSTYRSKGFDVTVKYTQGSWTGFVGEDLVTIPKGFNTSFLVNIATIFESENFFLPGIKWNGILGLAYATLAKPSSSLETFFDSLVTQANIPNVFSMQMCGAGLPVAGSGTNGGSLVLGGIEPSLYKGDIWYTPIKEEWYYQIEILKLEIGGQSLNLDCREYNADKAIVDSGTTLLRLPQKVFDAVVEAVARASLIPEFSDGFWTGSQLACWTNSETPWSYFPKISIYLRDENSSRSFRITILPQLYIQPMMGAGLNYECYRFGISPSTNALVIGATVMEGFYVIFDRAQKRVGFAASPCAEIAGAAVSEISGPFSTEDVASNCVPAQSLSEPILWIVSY
- experimental_details: assay for inhibition of BACE-2
pIC50: −log10 of the molar value. Counter-ions that a name gives are not always drawn.
Would you please tag the item Y when its pIC50 is 7 or above, and N when it is below?

Worked cases, answers included:
Cc1c(C(=O)Nc2ccc(F)c([C@]3(C(F)F)COCC(N)=N3)c2)nnn1C [Example 173, hydrochloride] :: N
Cc1cnc(C(=O)Nc2cccc(C3(C(F)F)COCC(N)=N3)c2)cn1 (stereo not shown) [Example 38] :: N
[2H]c1nc(C(=O)Nc2cc(C3(CF)COCC(N)=N3)ccn2)c(C([2H])([2H])[2H])c([2H])c1Cl (stereo not shown) [Example 269, acetate] :: N
CCN1CC(C)(c2cc(NC(=O)c3ncc(Cl)cc3Cl)ccc2F)N=C(N)C1=O (stereo not shown) [Example 193, hydrochloride] :: Y
CN1CC(N)=NC(C)(c2cccc(NC(=O)c3ccc(Br)cn3)c2)C1=O (stereo not shown) [Example 188] :: N

Consider now this further molecule.
# input Is it the case that C[C@@]1(c2cc(NC(=O)c3ncc(Cl)cc3F)ccc2F)CO[C@@](C)(C(F)(F)F)C(N)=N1 [Example 235, hydrochloride] has pIC50 reaching or exceeding 7?
# output Y
